experiment: modulators of S6 phosphorylation in cells, primary screen, cell-based, A549, cytoblot, luminescence, serum-stimulated (AID 1158); conditions: A549 phospho-S6 cytoblot, 5 h, higher = more signal;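 note: serum-stimulated A549 lung adenocarcinoma cells; signal is phosphorylated S6 detected by cytoblot immunostaining with HRP secondary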

- Compound: "CC1CC/C=C\\[C@H]2OC34C=CCN(C(C)C)C(=O)[C@H]3N(CCCO)C(=O)[C@@H]4C2C(=O)O1 (stereo partly drawn)"
  z-score: -0.251
- Compound: "COc1ccc(O[C@@H]2[C@H](O)CO[C@H]2C=CC#Cc2ccccc2)cc1"
  z-score: -0.367
- Compound: "CC(C)[C@@H](OCc1ccccc1)[C@H](C)C=NO[C@H](C)c1cn([C@H](CO)Cc2ccccc2)nn1"
  z-score: 1.99
- Compound: "COc1ccccc1CN1C(=O)c2ccccc2[C@@]2(Cc3ccccc3N(C(C)C)C2=O)[C@@H]1c1ccc(CO)cc1"
  z-score: 1.79
- Compound: "COC(=O)CC=C[C@H](C)[C@@H](OCc1ccccc1Br)C(C)C"
  z-score: 0.104
- Compound: "CC(CCN1CCc2nc(-c3ccccc3)c(-c3ccccc3)cc2C1)=NOC[C@@H](C)[C@H](OCc1ccccc1)C(C)C"
  z-score: 0.116
- Compound: "O=C1[C@H]2[C@H]3[C@H](O)[C@H](O)CC(=NOCc4ccccc4)[C@@H]3CC[C@H]2C(=O)N1Cc1ccccc1"
  z-score: -0.618
- Compound: "O=C(CS)NCCCCCNC(=O)[C@@H]1C[C@@H]2C(=O)N[C@@H](Cc3ccccc3)C(=O)N2[C@@H]1c1ccc(O)cc1"
  z-score: -0.205

====

test: mitochondrial membrane potential change in A549 cells, profiling panel, cell-based, JC-1 fluorescence, basal, 24 h, 100 nL (AID 1138); conditions: higher = more signal;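 note: A549 lung adenocarcinoma cells under basal conditions with no added stimulus; test concentration not given here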
Readout type: z-score

- Molecule: "Cc1ccc(F)cc1S(=O)(=O)N[C@@H]1CCN(Cc2ccc(CC(C)C)cc2)C1"
  Value reported: -0.391
- Molecule: "CCOC(=O)[C@H](Cc1ccccc1)NC(=O)CCC1CC(OC(=O)NCc2ccc3c(c2)OCO3)CC2(CCCC(COC(=O)NCC3CCCCC3)O2)O1 (some centres undefined)"
  Value reported: 0.491
- Molecule: "CC1CC/C=C\\[C@H]2OC34C=CCN(C(C)C)C(=O)[C@H]3N(CCCO)C(=O)[C@@H]4C2C(=O)O1 (some centres undefined)"
  Value reported: 0.439
- Molecule: "O=C1C[C@@H](O)[C@@H](O)[C@@H]2[C@@H]3C(=O)N(C4CCCCC4)C(=O)[C@@H]3CC[C@H]12"
  Value reported: -0.338

====

biological target: E3 ubiquitin-protein ligase XIAP (Homo sapiens); test: XIAP binders, primary screen, biophysical, small-molecule microarray, fluorescence 635 nm (AID 1181); conditions: small-molecule microarray binding, higher = more signal;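 note: score merges 667 nm emission and signal to noise over triplicate slides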
Listed below: composite z-score values for each entry.

- Smiles representation: "CCOC(=O)CCN1C(=O)[C@H]2[C@H]3[C@H](O)[C@H](O)CC(=NNC(=O)OCc4ccc(OC)cc4)[C@@H]3CC[C@H]2C1=O"
  composite z-score: -0.171
- Smiles representation: "CO[C@@H]1COC(=O)CCC[C@@H](C)[C@H](OC)COC(=O)[C@H](Cc2ccccc2)NC(=O)CC=C[C@H]1C"
  composite z-score: 0.0155
- Smiles representation: "CC(C)(C)N1C(=O)[C@H]2[C@H]3[C@H](O)[C@H](O)CC(=NO[C@@H]4O[C@H](CO)[C@@H](O)[C@H](O)[C@H]4O)[C@@H]3CC[C@H]2C1=O"
  composite z-score: 0.144
- Smiles representation: "O=C1[C@H]2[C@H]3[C@H](O)[C@H](O)CC(=NOCc4ccccc4)[C@H]3CC[C@H]2C(=O)N1C[C@@H]1CCCO1"
  composite z-score: -0.0773
- Smiles representation: "CC(C)=CCCC(C)=CCON=C1[C@H]2CCn3c(=O)n(C)c(=O)n3[C@H]2[C@H](O)[C@@H]2O[C@H]12"
  composite z-score: 0.153
- Smiles representation: "O=C1O[C@@H](c2ccccc2)[C@@H](c2ccccc2)N2[C@@H](c3ccc(O)cc3)[C@]3(C(=O)Nc4ccccc43)[C@@H](C(=O)O)[C@H]12"
  composite z-score: 0.125
- Smiles representation: "COCCCNC(=O)[C@@]1(C)c2ccccc2C(=O)N(Cc2ccc(OC(F)(F)F)cc2)[C@H]1c1ccc(CO)cc1"
  composite z-score: -0.148
- Smiles representation: "COc1ccc(O[C@H]2C=C[C@@H](c3ccccc3)O[C@@H]2COC(=O)CCC(C)=NOC[C@@H](C)[C@H](OCc2ccccc2)C(C)C)cc1"
  composite z-score: 0.552
- Smiles representation: "O=C1C2=CC[C@H]3C(=O)N(Cc4ccc5c(c4)OCO5)C(=O)[C@H]3[C@H]2[C@H](O)[C@@H]2O[C@H]12"
  composite z-score: -0.381
- Smiles representation: "O=C1O[C@@H](c2ccccc2)[C@@H](c2ccccc2)N2[C@@H](c3ccc(OCCO)cc3)[C@]3(C(=O)Nc4ccc(C#CCCO)cc43)[C@@H](C(=O)N3CCCCCCC3)[C@H]12"
  composite z-score: 0.733
- Smiles representation: "COCCCNC(=O)[C@]1(Cc2ccccc2)N=C(c2ccc(OCCCO)cc2)O[C@@H]1c1ccccc1"
  composite z-score: -0.0118
- Smiles representation: "CO[C@H]1COC(=O)[C@H](C)COC(=O)CC=C[C@@H](C)[C@H](OC)COC(=O)CC=C[C@@H]1C"
  composite z-score: -0.0117
- Smiles representation: "O=C1[C@H]2[C@H]3[C@H](O)[C@H](O)CC(=NOCc4ccccc4)[C@H]3CC[C@H]2C(=O)N1c1ccc(F)cc1F"
  composite z-score: 0.104
- Smiles representation: "O=C1C[C@]2(c3ccc([N+](=O)[O-])cc3)C(=O)N(CCN3CCOCC3)c3cc(CO)ccc3[C@H]2N1CC12CC3CC(CC(C3)C1)C2"
  composite z-score: 0.476

====

test: E. coli growth modulation, two-sided OD650, primary screen, E. coli filamentation project, strain DRC41, 24 h (AID 1093); conditions: OD650, 24 h, higher = more signal, called active from +8 up or from −8 down;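 note: MC1000 strain lacking acrAB efflux and sulA so SOS filamentation is blocked; test concentration not given here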
The source made the active and inactive calls.
Each entry below carries its recorded z-score.

- Compound: "CCOC(=O)CCN1C(=O)[C@H]2[C@H]3[C@H](O)[C@H](O)CC(=O)[C@H]3CC[C@H]2C1=O"
  z-score: "0.355 (inactive)"
- Compound: "CO[C@H]1O[C@H](CO)[C@@H](OC(=O)Nc2ccc(C#N)cc2)[C@H](OC(=O)c2cc3ccccc3[nH]2)[C@H]1OC(=O)c1cc2ccccc2[nH]1"
  z-score: "3.01 (inactive)"
- Compound: "CC(CCN1CCCCc2nc(C)c(C)cc21)=NOC(C)CN1CCCCc2nc(C)c(C)cc21 (centres undefined)"
  z-score: "-0.0919 (inactive)"
- Compound: "CO[C@@H]1COC(=O)[C@H](C)NC(=O)[C@@H](C)COC(=O)CCC[C@H]1C"
  z-score: "-0.183 (inactive)"
- Compound: "COc1ccc(CCNC(=O)[C@@H]2c3ccccc3C(=O)N(c3ccc(C)cn3)[C@H]2c2ccc(CO)cc2)cc1"
  z-score: "0.604 (inactive)"
- Compound: "COCCOC(=O)N1C(=O)[C@@]2(c3cc(C#Cc4ccc(OC)cc4)ccc31)[C@H](c1ccc(O)cc1)N1[C@H](c3ccccc3)[C@H](c3ccccc3)OC(=O)[C@H]1[C@@H]2C(N)=O"
  z-score: "0.04 (inactive)"
- Compound: "CN1C(=O)C2C=CC(C(O)c3ccc(Br)cc3)N(N(c3ccccc3)c3ccccc3)C2C1=O (centres undefined)"
  z-score: "-1.24 (inactive)"
- Compound: "O=C1[C@H]2[C@H]3[C@H](O)[C@H](O)CC(=NOCc4ccccc4)[C@H]3CC[C@H]2C(=O)N1c1cccc(Oc2ccccc2)c1"
  z-score: "0.211 (inactive)"
- Compound: "CC(C)(C)N1C(=O)[C@H]2[C@H]3[C@H](O)[C@H](O)CC(=NOCc4ccccc4)[C@@H]3CC[C@H]2C1=O"
  z-score: "-0.207 (inactive)"
- Compound: "CN1C(=O)C2C=CC(C(O)C(c3ccccc3)c3ccccc3)N(NC(=O)OC(C)(C)C)C2C1=O (centres undefined)"
  z-score: "-0.805 (inactive)"
- Compound: "CCCC[C@H]1OB(O)C[C@H]2C1=C(C)C[C@H]1C(=O)N(C)C(=O)[C@H]12"
  z-score: "-0.889 (inactive)"
- Compound: "CC(C)=CCCC(C)=CCON=C1[C@H]2CCn3c(=O)n(Cc4cc5c(cc4Cl)OCO5)c(=O)n3[C@H]2[C@H](O)[C@@H]2O[C@H]12"
  z-score: "-0.996 (inactive)"
- Compound: "CC1(C)OCC(C(O)C2=CCCCC2=O)CO1 (centres undefined)"
  z-score: "-0.449 (inactive)"
- Compound: "C=CCOC(=O)[C@H]1[C@@H]2C(=O)O[C@@H](c3ccccc3)[C@@H](c3ccccc3)N2[C@@H](c2ccc(OCCOC(=O)[C@H]3C[C@H]4C(=O)N[C@@H](Cc5ccccc5)C(=O)N4[C@H]3c3ccc(O)cc3)cc2)[C@]12C(=O)Nc1ccccc12"
  z-score: "1.37 (inactive)"
- Compound: "COCC1=C2[C@@H](CCc3ccccc3)OB(O)C[C@@H]2n2c(=O)n(-c3ccccc3)c(=O)n2C1"
  z-score: "0.203 (inactive)"
- Compound: "Cc1ccc(F)cc1S(=O)(=O)N[C@@H]1CCN(Cc2ccc(CC(C)C)cc2)C1"
  z-score: "-19.5 (active)"
- Compound: "Cc1ccc(S[C@]2(C(=O)O)CC(=O)N(Cc3ccccc3)[C@@H]2c2ccc(CO)cc2I)cc1"
  z-score: "-0.104 (inactive)"
- Compound: "COC(=O)[C@H](C)NC(=O)CCC1CC(OC(=O)NCc2ccc3c(c2)OCO3)CC2(CCCC(COC(=O)NCCOc3ccccc3)O2)O1 (some centres undefined)"
  z-score: "-1.16 (inactive)"
- Compound: "O=C1[C@H]2[C@H]3[C@H](O)[C@H](O)CC(=NOCc4ccccc4)[C@H]3CC[C@H]2C(=O)N1c1ccc(F)cc1F"
  z-score: "0.358 (inactive)"
- Compound: "c1ccc(C2NCCc3c2[nH]c2ccccc32)cc1 (centres undefined)"
  z-score: "-0.937 (inactive)"
- Compound: "CCCCCCc1nc(CCCc2cc3c(c(CCCCCC)n2)[Si](C(C)C)(C(C)C)O[C@H]3c2ccccc2)cc2c1[Si](C(C)C)(C(C)C)O[C@H]2c1ccccc1"
  z-score: "-1.43 (inactive)"
- Compound: "COc1ccc(O[C@@H]2[C@H](O)CO[C@H]2C=CC#Cc2ccccc2)cc1"
  z-score: "0.338 (inactive)"
- Compound: "COc1ccc(COC(=O)NN=C2C[C@@H](O)[C@@H](O)[C@@H]3[C@@H]4C(=O)N(c5ccc(F)cc5F)C(=O)[C@@H]4CC[C@@H]23)cc1"
  z-score: "0.488 (inactive)"
- Compound: "C=CCOC(=O)[C@H]1[C@@H]2C(=O)O[C@@H](c3ccccc3)[C@@H](c3ccccc3)N2[C@@H](c2ccc(OCCOC(=O)[C@H]3C[C@H]4C(=O)N5CCC[C@H]5C(=O)N4[C@H]3c3cccc(OCCO)c3)cc2)[C@]12C(=O)Nc1ccc(I)cc12"
  z-score: "-0.301 (inactive)"
- Compound: "O=C1C2C=CC(C(O)c3ccc([N+](=O)[O-])cc3)N(Nc3ccc([N+](=O)[O-])cc3)C2C(=O)N1c1ccccc1 (centres undefined)"
  z-score: "-0.956 (inactive)"
- Compound: "O=C1C[C@@H](O)[C@@H](O)[C@@H]2[C@@H]3C(=O)N(c4cccc(Oc5ccccc5)c4)C(=O)[C@@H]3CC[C@@H]12"
  z-score: "0.185 (inactive)"
- Compound: "CC(C)CN1CCc2nc(-c3ccccc3)c3c(c2CC1)CO[C@@H](C)C3"
  z-score: "0.102 (inactive)"
- Compound: "CCOC(=O)CCN1C(=O)[C@H]2[C@H]3[C@H](O)[C@H](O)CC(=NOC[C@@H](O)COCc4ccco4)[C@H]3CC[C@H]2C1=O"
  z-score: "0.09 (inactive)"
- Compound: "COC(=O)[C@@]1(Cc2ccccc2)[C@H]2c3cc(C(=O)N4CCCC4)n(Cc4ccccn4)c3C[C@H]2CN1C(=O)c1ccccc1"
  z-score: "-0.301 (inactive)"
